system: U2OS; experiment: Multiplex assay against U2OS; assay type: toxicity, cell-based; settings: human, 12 h, 10 µM, compound concentration 10 uM, replicate 2
READOUT TYPE: Population Healthy Nuclei (%)
Report the figure in % without appending any unit label.

Reported Population Healthy Nuclei (%), molecule Cc1ccccc1C(c1ccccc1C)N1C2CCC1CC(O)(c1ccccc1)C2 (stereo not given) : ____
81

Reported Population Healthy Nuclei (%), molecule O=C(c1cc2c(cc1F)OC(c1ccc(F)cc1)(c1ccc(Cl)cc1Cl)O2)N1CCOCC1 (stereo not given) : ____
78

Reported Population Healthy Nuclei (%), molecule CC(C)Oc1ccccc1C(=O)Nc1ccccc1C(=O)Nc1cccc(S(=O)(=O)C(F)(F)F)c1 : ____
71

Reported Population Healthy Nuclei (%), molecule C[C@]12CC[C@@H]3c4ccc(O)cc4CC[C@H]3[C@@H]1CC[C@@H]2O : ____
77

Reported Population Healthy Nuclei (%), molecule Cc1c[nH]c2nccc(Oc3c(F)cc(Nc4cc(Cl)nc(N)n4)cc3F)c12 : ____
65

The measurements presented in this section are drawn from ChEMBL document CHEMBL4689842.
